- System: MCF7 cells
- test details: Cytotoxic activity (MTS assay), MCF7
- Type: cell-based, human
- measurement setup: Homo sapiens, MCF7; 10 μM, 24 h; read-out: MCF7 inhibition rate
Reported inhibition at 10 µM values follow for various compounds
The reply should contain only the number, in %.

The cases that follow already have their inhibition at 10 µM on record.
compound: C=C(C)[C@H](CCC(C)(C)O)Cc1c(O)cc(OC)c2c1O[C@H](c1ccc(O)cc1O)[C@@H](O)C2=O
inhibition at 10 µM, %: 4.5
--
compound: C=C(C)C(CC=C(C)C)Cc1c(O)c(OC)c2c(c1O)C(=O)C(O)C(c1ccc3c(c1)OCO3)O2 (stereo not shown)
inhibition at 10 µM, %: 10.3
--
compound: C=C(C)C(CC=C(C)C)Cc1cc(OC)ccc1C1Oc2cc(O)cc(CC(CC=C(C)C)C(=C)C)c2C(=O)C1O (stereo not shown)
inhibition at 10 µM, %: 85

Next item in the queue.
For this compound ( C=C(C)C(CCC(C)(C)O)Cc1c(O)cc(OC)c2c1OC(c1ccc(O)cc1O)C(O)C2=O (stereo not shown) ), measured inhibition at 10 µM is 0.7

====

Listing of entries alongside the reported pIC50.
- System: A549 cells
- test details: Cytotoxic activity (MTS assay), A549
- Format: cell-based, human
- measurement setup: Homo sapiens, A549; 24 h, MTS
Interpret pIC50 as the negative base-10 log of the concentration measured in mol/L.

compound: CCc1c2c(nc3ccc(OC(=O)N4CCC(N5CCCCC5)CC4)cc13)-c1cc3c(c(=O)n1C2)COC(=O)[C@]3(O)CC [irinotecan, reference compound]
reported: 6.00

Moving on to another compound below.
Please fill in: pIC50 reported for C=C(C)C(CC=C(C)C)Cc1cc(OC)ccc1C1Oc2cc(O)cc(CC(CC=C(C)C)C(=C)C)c2C(=O)C1O (centres unmarked) = 4.98

====

Reported ABTS radical scavenging activity (inhibition rate) values follow for various compounds
- test details: ABTS free radical scavenging assay
- Assay type: biochemical
- measurement setup: 20 μg/mL; SD in brackets

compound: COc1cc(O)c(CC=C(C)C)c(O)c1C(=O)/C=C/c1ccc(O)cc1 [Compound 7, xanthohumol]
reported: 87.9% (2.0%)

compound: O=c1c(-c2ccc(O)cc2)coc2cc(O)cc(O)c12 [Compound 18, genistein]
reported: 69.0% (1.4%)

compound: O=C(O)c1ccc(O)cc1O [Compound 27, b-resorcylic acid]
reported: 63.4% (1.4%)

compound: C=C(C)C(CCC(C)(C)O)Cc1cc(O)c(C(=O)/C=C/c2ccc(O)cc2O)c(OC)c1O (centres unmarked) [Compound 5, kuraridinol]
reported: 75.7% (1.5%)

compound: O=C(O)c1ccc(O)cc1 [Compound 28, 4-hydroxybenzoic acid]
reported: 2.2% (0.9%)

compound: O=c1ccc2ccc(O)c(O)c2o1 [Compound 25, 7,8-dihydroxycoumarin]
reported: 97.8% (1.8%)

Please find the next compound below.
Entry O=C1C[C@@H](c2ccc(O)cc2)Oc2cc(O)cc(O)c21 [Compound 11, naringenin] , ABTS radical scavenging activity (inhibition rate) reported as 55.4% (2.2%)

====

inhibition at 10 µM values for the compounds below.
- Tested on: HepG2 cells
- test details: Cytotoxic activity (MTS assay), HepG2
- Format: cell-based, human
- measurement setup: Homo sapiens, HepG2, 10 µM; SD in brackets; read-out: HepG2 cell inhibitory activity (Table S4)
Could you kindly put the unit after your number?

compound: CC(C)=CCC(Cc1c(O)cc(O)c2c1OC(c1ccc(O)cc1O)CC2=O)C(C)CO (stereo not shown)
test target: HepG2 cells
inhibition at 10 µM: 3.5%
--
compound: COc1ccc(C(=O)O)c(O)c1
test target: HepG2 cells
inhibition at 10 µM: 1.5%
--
compound: O=C(O)c1ccc(O)cc1 [Compound 28, 4-hydroxybenzoic acid]
test target: HepG2 cells
inhibition at 10 µM: 10.2%

Continue with the next compound.
Reported inhibition at 10 µM for C=C(C)C(CC=C(C)C)Cc1cc(OC)ccc1C1Oc2cc(O)cc(CC(CC=C(C)C)C(=C)C)c2C(=O)C1O (stereo not shown) was 84.1%
